Each item that follows carries a reported solubility at 24 h.
assay: Solubility test of Form I and free base in different dissolution media; assay type: physicochemical; conditions: thermodynamic from solid; Simulated gastric fluid (SGF), 20° C., saturated for 24 hours
The answer is to be given in mg/mL; state only the numeric part.

compound	solubility at 24 h / mg/mL
C#Cc1cccc(Nc2ncnc3cc(OC)c(NC(=O)N4CCN(CC)CC4)cc23)c1 [free base]	38.5

Next, consider the following compound.
Using known records, supply solubility at 24 h for C#Cc1cccc(Nc2ncnc3cc(OC)c(NC(=O)N4CCN(CC)CC4)cc23)c1.O=C(O)CCC(=O)O [Form I]
103

====

Test: Solubility test of Form I and free base in different dissolution media
Assay type: physicochemical
Settings: aqueous buffer, thermodynamic from solid; pH 8.0 buffer, 25° C., saturated for 24 hours
Method: Determination method: excess amount of Form I sample of compound of Formula A and its free base (compound 4-ethyl-N-(4-((3-ethynylphenyl)amino)-7-methoxyquinazolin-6-yl) piperazine-1-carboxamide) were suspended in different dissolution media respectively, and saturated for 24 hours under shaking at constant temperature, then filtered. The filtrates were used for determining solubility of the samples. […]
assay_readout: solubility at 24 h (µg/mL)
Please give a number only; it is taken to be in µg/mL.

Annotate the compound C#Cc1cccc(Nc2ncnc3cc(OC)c(NC(=O)N4CCN(CC)CC4)cc23)c1.O=C(O)CCC(=O)O [Form I] with its measured solubility at 24 h.
0.5

====

assay: Solubility test of Form I and free base in different dissolution media; type: physicochemical; conditions: aqueous buffer, thermodynamic from solid; pH 4.5 buffer, 25° C., saturated for 24 hours
assay_readout: solubility at 24 h (µg/mL)
Lab book: enter the figure in µg/mL, no units written.

molecule	solubility at 24 h / µg/mL
C#Cc1cccc(Nc2ncnc3cc(OC)c(NC(=O)N4CCN(CC)CC4)cc23)c1 [free base]	5.21

Now let's try a different one.
Return solubility at 24 h for the following molecule: C#Cc1cccc(Nc2ncnc3cc(OC)c(NC(=O)N4CCN(CC)CC4)cc23)c1.O=C(O)CCC(=O)O [Form I]
10000

====

Assay: Solubility test of Form I and free base in different dissolution media
Assay type: physicochemical
Conditions: aqueous buffer, thermodynamic from solid; pH 6.8 buffer, 25° C., saturated for 24 hours
Procedure: Determination method: excess amount of Form I sample of compound of Formula A and its free base (compound 4-ethyl-N-(4-((3-ethynylphenyl)amino)-7-methoxyquinazolin-6-yl) piperazine-1-carboxamide) were suspended in different dissolution media respectively, and saturated for 24 hours under shaking at constant temperature, then filtered. The filtrates were used for determining solubility of the samples. […]
assay_readout: solubility at 24 h

Name the recorded solubility at 24 h of the compound listed here: C#Cc1cccc(Nc2ncnc3cc(OC)c(NC(=O)N4CCN(CC)CC4)cc23)c1.O=C(O)CCC(=O)O [Form I]
253 µg/mL

Complete the entry with solubility at 24 h for C#Cc1cccc(Nc2ncnc3cc(OC)c(NC(=O)N4CCN(CC)CC4)cc23)c1 [free base]
0.84 µg/mL

====

experiment: Solubility test of Form I and free base in different dissolution media; assay type: physicochemical; conditions: thermodynamic from solid; Distilled water, 20° C., saturated for 24 hours
assay_readout: solubility at 24 h (µg/mL)
Number in µg/mL, nothing else.

molecule	unit_info	measured_number
C#Cc1cccc(Nc2ncnc3cc(OC)c(NC(=O)N4CCN(CC)CC4)cc23)c1 [free base]	µg/mL	1

For the next question, use this molecule.
Please give measured solubility at 24 h of the following entry: C#Cc1cccc(Nc2ncnc3cc(OC)c(NC(=O)N4CCN(CC)CC4)cc23)c1.O=C(O)CCC(=O)O [Form I]
803

====

assay: Solubility test of Form I and free base in different dissolution media; assay type: physicochemical; details: aqueous buffer, thermodynamic from solid; pH 1.2 buffer, 25° C., saturated for 24 hours
assay_readout: solubility at 24 h (mg/mL)
Write it as a number; the unit mg/mL goes unstated.

molecule	solubility at 24 h (mg/mL)
C#Cc1cccc(Nc2ncnc3cc(OC)c(NC(=O)N4CCN(CC)CC4)cc23)c1 [free base]	38.5

State, in one line, measured solubility at 24 h of C#Cc1cccc(Nc2ncnc3cc(OC)c(NC(=O)N4CCN(CC)CC4)cc23)c1.O=C(O)CCC(=O)O [Form I]
103

====

assay: Solubility test of Form I and free base in different dissolution media; assay type: physicochemical; settings: fassgf or other biorelevant, thermodynamic from solid; Simulated intestinal fluid (SIF), 20° C., saturated for 24 hours
assay_readout: solubility at 24 h (µg/mL)
I only need the number, in µg/mL, no unit after it.

compound	unit_info	solubility at 24 h
C#Cc1cccc(Nc2ncnc3cc(OC)c(NC(=O)N4CCN(CC)CC4)cc23)c1.O=C(O)CCC(=O)O [Form I]	µg/mL	253

Okay, now this compound:
Tell me solubility at 24 h reported for C#Cc1cccc(Nc2ncnc3cc(OC)c(NC(=O)N4CCN(CC)CC4)cc23)c1 [free base]
0.84

====

assay: Solubility test of Form I and free base in different dissolution media; type: physicochemical; settings: aqueous buffer, thermodynamic from solid; pH 2.1 buffer, 25° C., saturated for 24 hours
assay_readout: solubility at 24 h
Give the number first and the unit second.

molecule	solubility at 24 h
C#Cc1cccc(Nc2ncnc3cc(OC)c(NC(=O)N4CCN(CC)CC4)cc23)c1.O=C(O)CCC(=O)O [Form I]	15.5 mg/mL

API: the following record is the query input.
Write down solubility at 24 h measured for item C#Cc1cccc(Nc2ncnc3cc(OC)c(NC(=O)N4CCN(CC)CC4)cc23)c1 [free base]
5.45 mg/mL
